Tested on: Sarcoma 180
Test: Test 4: Test of Antitumor Effect to Sarcoma 180 by Oral Administration
Assay type: in vivo, ICR female mice
Conditions: 100 mg/kg oral once a day, 10 days; 4 weeks; control 15.2
Counter-ions that a name gives are not always drawn.
OBSERVED_PROPERTY: D: average diameter of tumor, 4 weeks

- COMPOUND: "CCN(CC)C(=O)N1CCN(c2ccc(C(=O)O)cc2)CC1 [drawing 33]"
  REPORTED_RESULT: "3.5 mm"
- COMPOUND: "c1ccc([C@H]2CN3CCSC3=N2)cc1 [Levamisole hydrochloride, reference compound]"
  REPORTED_RESULT: "16.2 mm"
- COMPOUND: "CCN(CC)C(=O)N1CCN(c2ccc(OC)cc2)CC1 [drawing 31]"
  REPORTED_RESULT: "4.6 mm"
- COMPOUND: "CCOC(=O)c1ccc(N2CCN(C(=O)N(CC)CC)CC2)cc1 [drawing 32]"
  REPORTED_RESULT: "7.4 mm"
- COMPOUND: "CCN(CC)C(=O)N1CCN(c2ccccc2)CC1 [drawing 29]"
  REPORTED_RESULT: "6.6 mm"
- COMPOUND: "CCN(CC)C(=O)N1CCN(c2ccc(C(C)=O)cc2)CC1 [drawing 34]"
  REPORTED_RESULT: "4.7 mm"
- COMPOUND: "CCN(CC)C(=O)N1CCN(c2ccc(Cl)cc2)CC1 [drawing 30]"
  REPORTED_RESULT: "5.8 mm"

* * *

System: adjuvant arthritis
Test: Test 2: Adjuvant Arthritis Test
Format: in vivo, SD male rats
Conditions: 5 mg/kg subcutaneous, 9 times; left hind leg; 15 days; control 84.4 ± 9.0; * P<0.05, ** P<0.01
Where a name gives a salt, the structure may show the parent alone.
OBSERVED_PROPERTY: Swelling Ratio (average value ± standard variation), 15 days (%)

- COMPOUND: "c1ccc([C@H]2CN3CCSC3=N2)cc1 [Levamisole hydrochloride, reference compound]"
  REPORTED_RESULT: 65.2
- COMPOUND: "CCN(CC)C(=O)N1CCN(c2ccc(C(=O)O)cc2)CC1 [drawing 21]"
  REPORTED_RESULT: 65.0
- COMPOUND: "CCN(CC)C(=O)N1CCN(c2ccc(OC)cc2)CC1 [drawing 19]"
  REPORTED_RESULT: 60.1
- COMPOUND: "CCN(CC)C(=O)N1CCN(c2ccccc2)CC1 [drawing 17]"
  REPORTED_RESULT: 47.0
- COMPOUND: "CCN(CC)C(=O)N1CCN(c2ccc(C(C)=O)cc2)CC1 [drawing 22]"
  REPORTED_RESULT: 61.4
- COMPOUND: "CCOC(=O)c1ccc(N2CCN(C(=O)N(CC)CC)CC2)cc1 [drawing 20]"
  REPORTED_RESULT: 63.7
- COMPOUND: "CCN(CC)C(=O)N1CCN(c2ccc(Cl)cc2)CC1 [drawing 18]"
  REPORTED_RESULT: 57.9
